Target: T1, human IL-23 (human, UniProt Q9NPF7 20-189; P29460 23-328)
T1 construct: Bought recombinant heterodimeric cytokine (eBioscience 34-8239-85 for panning; R&D Systems for the splenocyte assay); also called hIL-23; hIL23
T1 sequence (looked up) 1: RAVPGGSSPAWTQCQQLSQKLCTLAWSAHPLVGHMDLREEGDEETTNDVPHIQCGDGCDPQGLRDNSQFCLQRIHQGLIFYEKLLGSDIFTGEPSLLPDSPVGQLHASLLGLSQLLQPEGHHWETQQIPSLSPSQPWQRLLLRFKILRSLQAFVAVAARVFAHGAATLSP
T1 sequence (looked up) 2: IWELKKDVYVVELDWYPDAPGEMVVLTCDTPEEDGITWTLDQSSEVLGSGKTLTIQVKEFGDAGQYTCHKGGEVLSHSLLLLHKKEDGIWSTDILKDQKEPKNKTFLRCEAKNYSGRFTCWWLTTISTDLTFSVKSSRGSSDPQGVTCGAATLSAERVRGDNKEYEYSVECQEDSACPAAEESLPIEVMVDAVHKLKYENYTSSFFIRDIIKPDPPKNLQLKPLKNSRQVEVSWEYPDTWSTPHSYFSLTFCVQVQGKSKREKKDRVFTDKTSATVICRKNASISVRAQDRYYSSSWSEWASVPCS
Experiment: kinetic ELISA, soluble polypeptide
property: kon (M⁻¹ s⁻¹)

binder	kon [M⁻¹ s⁻¹]
MA15 (designed binder) MSIQEIQKEIANIQAVIAGIQKYIYTMTGGSGGSGGGGSGGSGGMSIEEIQKQIAAIQCQIAAIQKQIYAMTGSGGGGSGMSIEEIQKQITAIQAQIIAIYKQIMAMPR	800000
MB9 (designed binder) MSIQQIQKEITNIQEVIAAIQKWIYTMTGGSGGSGGMSIEEIQKQIAAIQCQIAAIQKQIYAMTGSGGGGSGGSGGGGSGMSIEEIQKQIAAIQNQILAIYKQIMAMGS	1.9e+06

(a) MB23 (designed binder, 3 for clone 59 (conflict); also called non-PEGylated MB23 Alphabody) MSIEQIQKEITTIQEVIAAIQKYIYTMTGGSGGSGGMSIEEIQKQIAAIQCQIAAIQKQIYAMTGSGGGGSGMSIEEIQKQIAAIQEQIVAIYKQIMAMAS
(b) MB74 (designed binder) MSIQQIQKEIATIQEVIAGIQKYIYRMTGGSGGSGGGGSGGSGGMSIEEIQKQIAAIQCQIAAIQKQIYAMTGSGGGGSGMSIEEIQKQIAAIQGQILAIYKQIMAMAI
Q. Lab note: check whether a or b shows the higher recorded kon. Answer with the label corresponding to your selection.
A. a
(a: 1.5e+06 M⁻¹ s⁻¹, b: 650000 M⁻¹ s⁻¹)
